System: XIP peptide (Xip251-270)
Assay: small-molecule binders of XIP peptide, primary screen, biochemical, small-molecule microarray, fluorescence 635/667 nm, 0.5 µg/mL protein (AID 1183)
Conditions: small-molecule microarray binding, fluorescence 635 nm; higher = more signal
Mark yes (1) for reported composite z-score of -0.3 or greater; mark no (0) for anything smaller.

State whether the measured composite z-score reaches -0.3, counting equality as reaching it, for C=C(COC)/C(=C/C[C@H](OC(C)=O)c1ccc(OCCO)cc1)c1cnc2ccccc2c1
yes (1)

State whether the measured composite z-score reaches -0.3, counting equality as reaching it, for C=C(C)[C@@H]1CC=C(C(O)C2C=CC3C(=O)NC(=O)C3N2Nc2ccccn2)CC1 (some centres undefined)
yes (1)

State whether the measured composite z-score reaches -0.3, counting equality as reaching it, for COCCOC(=O)N1C(=O)[C@@]2(c3cc(C#CCNC(N)=O)ccc31)[C@H](c1ccc(OCCO)cc1)N1[C@H](c3ccccc3)[C@H](c3ccccc3)OC(=O)[C@H]1[C@@H]2C(=O)N1CCCCCCC1
yes (1)

State whether the measured composite z-score reaches -0.3, counting equality as reaching it, for O=C1OCCC=C[C@H]2OC34C=CCN(Cc5ccccc5)C(=O)[C@H]3N(CCO)C(=O)[C@@H]4C12 (some centres undefined)
no (0)

State whether the measured composite z-score reaches -0.3, counting equality as reaching it, for O=C1c2ccccc2[C@@]2(Cc3ccccc3N(CC(F)(F)F)C2=O)[C@H](c2ccc(CO)cc2)N1C1CCCCC1
yes (1)

State whether the measured composite z-score reaches -0.3, counting equality as reaching it, for N#Cc1ccc(NN2C(C(O)CCc3ccccc3)C=CC3C(=O)N(c4ccccc4)C(=O)C32)cc1 (centres undefined)
yes (1)

State whether the measured composite z-score reaches -0.3, counting equality as reaching it, for CCN1C(C)=C(C(=O)OC)[C@@H](c2ccccc2)N2C(=O)[C@@]3(C(=O)OC)O[C@@]12[C@@H]1C(=O)CCC[C@@H]13
no (0)

State whether the measured composite z-score reaches -0.3, counting equality as reaching it, for COCCOC(=O)N1C(=O)[C@@]2(c3cc(C#CCC(C(=O)OC)C(=O)OC)ccc31)[C@H](C(=O)N1CCN(c3ncccn3)CC1)[C@H]1C(=O)O[C@H](c3ccccc3)[C@H](c3ccccc3)N1[C@@H]2c1ccc(O)cc1
yes (1)

State whether the measured composite z-score reaches -0.3, counting equality as reaching it, for CCCN1C(=O)[C@@]2(CCS(=O)(=O)c3ccccc3)N=C(c3ccc(OCCCO)cc3)O[C@H]2c2ccccc21
yes (1)

State whether the measured composite z-score reaches -0.3, counting equality as reaching it, for C=CCC(OC(C)=O)[C@@H]1[C@@H](N(Cc2cccc3ccccc23)C(=O)Cc2ccc(F)cc2)c2cc(OCCCO)ccc2N1C(=O)Cc1ccc2ccccc2c1 (some centres undefined)
yes (1)

State whether the measured composite z-score reaches -0.3, counting equality as reaching it, for N#Cc1ccc(NN2C(C(O)c3ccc(I)cc3)C=CC3C(=O)N(c4ccccc4)C(=O)C32)cc1 (centres undefined)
yes (1)

State whether the measured composite z-score reaches -0.3, counting equality as reaching it, for CC(C)CN1C(=O)[C@@]2(Cc3ccccc31)c1ccccc1C(=O)N(C1CCCCC1)[C@H]2c1ccc(CO)cc1
no (0)

State whether the measured composite z-score reaches -0.3, counting equality as reaching it, for CCOC(=O)C[C@H]1[C@H](OC(=O)c2ccccc2-c2ccccc2)[C@@H](NC(=O)c2ccc(-c3ccccc3)cc2)c2cc(OCCCO)ccc2N1C(=O)Cc1ccc(OC)cc1
yes (1)

State whether the measured composite z-score reaches -0.3, counting equality as reaching it, for CC(C)N1CC=CC23O[C@@H]4/C=C\CCCOC(=O)C4[C@H]2C(=O)N(CCCCCO)[C@@H]3C1=O (some centres undefined)
no (0)
